Molecular target: caspase-3 (Homo sapiens)
Assay: Caspase-3 inhibition (Ki)
Assay type: biochemical
Details: Table 4
measured-attribute: Ki (µM)

[a] O=C[C@H](CC(=O)O)NC(=O)CCCCCNS(=O)(=O)c1cccc(C(=O)O)c1 [compound 19]
[b] O=C[C@H](CC(=O)O)NC(=O)c1ccc(CNS(=O)(=O)c2ccc(O)c(C(=O)O)c2)cc1 [compound 21]
Query :: // max by Ki over [ a , b ] Reply with the label of the item you choose.
Result :: a
(a: 15.3 µM, b: 0.16 µM)

---

Molecular target: E. coli TS (Escherichia coli, UniProt P0A884)
Sequence (P0A884 whole entry): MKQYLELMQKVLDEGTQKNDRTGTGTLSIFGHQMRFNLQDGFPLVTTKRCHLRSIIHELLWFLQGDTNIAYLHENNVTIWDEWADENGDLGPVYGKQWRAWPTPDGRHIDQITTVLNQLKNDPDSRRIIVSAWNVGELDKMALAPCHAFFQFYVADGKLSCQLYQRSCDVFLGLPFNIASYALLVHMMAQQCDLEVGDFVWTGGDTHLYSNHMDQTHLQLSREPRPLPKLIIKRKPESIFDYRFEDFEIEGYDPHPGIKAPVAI
Experiment: Thymidylate synthase inhibition, enzymatic assay (Michaelis-Menten kinetics) on tether-free analogs
Type: biochemical
Conditions: free acid, Michaelis-Menten kinetics
Description: TS is an ideal validating target for several reasons. […] Second, a simple colorimetric assay exists for determining whether a potential ligand binds to TS. […] In one illustrative example, the tethering experiment is performed in the presence of a known substrate. […] R^c portion of the ligand fragment was determined using Michaelis-Mention kinetics. The inhibition constants of the untethered versions of the selected ligand candidates were determined.
measured-attribute: Ki (µM)
# number only, unit µM dropped from output

Query :: Can you share its Ki? I mean this molecule: Cc1ccc(S(=O)(=O)N2CCC[C@@H]2C(=O)O)cc1
Result :: 1100

---

Target: caspase-3 (Homo sapiens, UniProt P42574)
Sequence (P42574 29-175 limits assumed): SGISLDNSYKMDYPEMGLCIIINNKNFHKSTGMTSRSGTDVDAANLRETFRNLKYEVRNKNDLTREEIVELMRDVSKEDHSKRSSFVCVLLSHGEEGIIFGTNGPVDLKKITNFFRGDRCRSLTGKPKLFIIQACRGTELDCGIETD
Sequence (P42574 176-277 limits assumed): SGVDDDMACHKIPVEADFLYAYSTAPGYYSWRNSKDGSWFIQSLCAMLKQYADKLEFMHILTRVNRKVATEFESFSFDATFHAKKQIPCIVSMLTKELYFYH
Assay: Caspase-3 inhibition (Ki)
Assay type: biochemical
measured-attribute: Ki (nM)

[I] CS(=O)(=O)c1ccc(C(=O)NCCCS(=O)(=O)Cc2cccc(S(=O)(=O)N[C@H](C=O)CC(=O)O)c2)s1
[II] CC(=O)N[C@@H](CCC(=O)O)C(=O)N[C@H](C(=O)N[C@H](C=O)CC(=O)O)C(C)C [compound I, reference compound]
Query :: Pick one, I or II : lowest reported Ki. Reply with the label of the item you choose.
Result :: II
(II: 51 nM, I: 330 nM)
